# Tested on: breast carcinoma (MCF-7) cells
# testDetails: Cell viability (MTT) assay, MCF-7
# Type: cell-based, human
# experimentalConditions: Homo sapiens, MCF7, 48 h treatment
recordedMetric: IC50 (µM)
A number alone suffices; assume µM.

Q. Looking for the measured IC50 of COc1cc2c3c(c4c(OC)c(OC)c(OC)cc4c2cc1OC)CC1CCCCN1C3 (centres unmarked) , can you help?
A. 0.276

Q. Looking for the measured IC50 of COc1cc2c(cc1O)c1c(c3cc(OC)c(OC)cc32)CC2CCCCN2C1 (centres unmarked) , can you help?
A. 0.0064

Q. Could you tell me which IC50 is on file for COc1ccc2c(c1)c1c(c3cc(OC)c(OC)cc32)CN2CCCCC2C1 (centres unmarked) ?
A. 0.393

Q. GET /values?readout=IC50&item= COc1cc2c3c(c4c(OC)c(OC)c(OC)cc4c2cc1OC)CN1CCCCC1C3 (centres unmarked)
A. 0.277

Query compound follows.
Q. Entry under review: COc1ccc2c(c1)c1c(c3cc(OC)c(OC)cc32)CN2CCCC2C1 (centres unmarked) . Reported IC50?
A. 2.48
